Form field: pEC50 (one value per entry).
System: p53 signaling (p53RE-bla HCT-116 cells)
Experiment: cells
Type: cell-based
Conditions: Homo sapiens, HCT-116, read-out: p53 activation EC50, No MS
Conceptually, pEC50 converts a concentration in mol/L into minus its log10.

> print(dat)
                                   compound                            target.entity  endpoint.label  value.reported
1  Oc1c(Cl)cc(Cl)c(Cl)c1Cl [2,3,4,6-Tetrachlorophenol]  p53 signaling (p53RE-bla HCT-116 cells)           pEC50            4.75
2  c1ccc2cc3c(cc2c1)-c1cccc2cccc-3c12 [Benzo(k)fluoranthene]  p53 signaling (p53RE-bla HCT-116 cells)           pEC50            5.07

Query string: Supply measured pEC50 of Nc1nc(N)c2nc(-c3ccccc3)c(N)nc2n1 [Triamterene] in your reply.
Result string: 4.54

----------
Tested on: p53 signaling (p53RE-bla HCT-116 cells)
Assay: cells
Settings: Homo sapiens, HCT-116
Form field: EC50 (one value per entry).
I'd appreciate it if you wrote the number followed by its unit.

Some compounds with known EC50 results, for comparison:
> print(dat)
                                   compound  endpoint.label  value.reported
1               COP(=S)(OC)Oc1ccc(SC)c(C)c1            EC50         7.81 µM
2           Cc1cc(OC(=O)N(C)C)nn1C(=O)N(C)C            EC50         5.44 µM
3          COP(=S)(OC)SCN1C(=O)c2ccccc2C1=O            EC50         11.6 µM
4  CCOP(=S)(NC(C)C)Oc1ccccc1C(=O)OC(C)C (stereo not drawn)            EC50         0.75 µM
5  CCOP(=O)(NC(C)C)Oc1ccc(SC)c(C)c1 (stereo not drawn)            EC50          1.5 µM
6  COP(N)(=S)Oc1ccccc1C(=O)OC(C)C (stereo not drawn)            EC50         4.93 µM
7                  CCOP(=S)(OCC)SCSC(C)(C)C            EC50         2.81 µM
8            COP(=S)(OC)Oc1nc(Cl)c(Cl)cc1Cl            EC50         15.5 µM

Query string: Jot down EC50 (p53 signaling (p53RE-bla HCT-116 cells)) of CCOP(=S)(OCC)Oc1cc(-c2ccccc2)on1 .
Result string: 8.62 µM

Query string: Jot down EC50 (p53 signaling (p53RE-bla HCT-116 cells)) of COc1c2ccoc2cc2oc(=O)ccc12 .
Result string: 16.4 µM

Query string: Jot down EC50 (p53 signaling (p53RE-bla HCT-116 cells)) of c1ccc2c(c1)[nH]c1cnccc12 .
Result string: 28.1 µM

Query string: Jot down EC50 (p53 signaling (p53RE-bla HCT-116 cells)) of CCOP(=S)(OCC)Oc1ccc2c(C)c(Cl)c(=O)oc2c1 .
Result string: 5.95 µM

Query string: Jot down EC50 (p53 signaling (p53RE-bla HCT-116 cells)) of CCOP(=S)(OCC)SCCSCC .
Result string: 9.13 µM

Query string: Jot down EC50 (p53 signaling (p53RE-bla HCT-116 cells)) of CCOP(=S)(OCC)SCSP(=S)(OCC)OCC .
Result string: 6.2 µM

Query string: Jot down EC50 (p53 signaling (p53RE-bla HCT-116 cells)) of CCNP(=S)(OC)O/C(C)=C/C(=O)OC(C)C (stereo not drawn) .
Result string: 3.05 µM

Query string: Jot down EC50 (p53 signaling (p53RE-bla HCT-116 cells)) of CCOC(=O)c1cn2nc(OP(=S)(OCC)OCC)cc2nc1C .
Result string: 0.7 µM

Query string: Jot down EC50 (p53 signaling (p53RE-bla HCT-116 cells)) of COP(=O)(OC)O/C(=C\Cl)c1cc(Cl)c(Cl)cc1Cl .
Result string: 10.5 µM

----------
System: p53 signaling (p53RE-bla HCT-116 cells)
Test: cells
Conditions: Homo sapiens, HCT-116, read-out: p53 activation EC50, primary screening
Counter-ions that a name gives are not always drawn.
Form field: EC50 (one value per entry).
Give just the numeric value; µM need not be written.

> print(dat)
                                   compound  value.reported
1  c1ccc2c(c1)-c1cccc3cccc-2c13 [Fluoranthene]            24.4
2      c1ccc2c(c1)[nH]c1cnccc12 [Norharman]            32.6

Query string: Supply measured EC50 of COP(=S)(OC)Oc1nc(Cl)c(Cl)cc1Cl [Chlorpyrifos-methyl] in your reply.
Result string: 11

Query string: Supply measured EC50 of CN1CCc2cc3c(cc2C1O)OCO3 (stereo not shown) [Hydrastinine hydrochloride] in your reply.
Result string: 28.6

Query string: Supply measured EC50 of c1ccc2c(c1)c1cccc3ccc4cccc2c4c31 [Benzo(e)pyrene] in your reply.
Result string: 20.1

Query string: Supply measured EC50 of O=P(OCC(Br)CBr)(OCC(Br)CBr)OCC(Br)CBr (stereo not shown) [Tris(2,3-dibromopropyl) phosphate] in your reply.
Result string: 46.6

Query string: Supply measured EC50 of C=CC1(C)OC(=O)N(c2cc(Cl)cc(Cl)c2)C1=O (stereo not shown) [Vinclozolin] in your reply.
Result string: 16.9

----------
System: p53 signaling (p53RE-bla HCT-116 cells)
Experiment: cells
Format: cell-based
Conditions: Homo sapiens, HCT-116, read-out: Efficacy, p53 activation, primary screening
Where a name gives a salt, the structure may show the parent alone.
If the reported Emax equals or exceeds 50%, assign fulfilled. If not, assign not fulfilled.

MOLECULE	CATEGORY
C=CCOC(Cn1ccnc1)c1ccc(Cl)cc1Cl (stereo not drawn)	not fulfilled
Cc1nc(N)nc(N)c1-c1ccc(Cl)c(Cl)c1	not fulfilled

Query string: Reported Emax at or above 50%? COc1cccc2c1C(=O)c1c(O)c3c(c(O)c1C2=O)C[C@@](O)(C(=O)CO)C[C@@H]3O[C@H]1C[C@H](N)[C@H](O)[C@H](C)O1 [Adriamycin hydrochloride]
Result string: fulfilled

Query string: Reported Emax at or above 50%? CC1=CC(=O)c2ccccc2C1=O
Result string: not fulfilled

Query string: Reported Emax at or above 50%? C[C@H]1O[C@@H](n2cc(F)c(=O)[nH]c2=O)[C@H](O)[C@@H]1O
Result string: fulfilled

Query string: Reported Emax at or above 50%? CSc1ccc2c(c1)N(CCC1CCCCN1C)c1ccccc1S2 (stereo not drawn) [Thioridazine hydrochloride]
Result string: fulfilled

Query string: Reported Emax at or above 50%? Oc1ccc(-c2ccc(O)cc2)cc1
Result string: not fulfilled

Query string: Reported Emax at or above 50%? O=c1cc(-c2ccccc2)oc2cc(O)cc(O)c12
Result string: not fulfilled

Query string: Reported Emax at or above 50%? CC(C)(c1cc(Br)c(O)c(Br)c1)c1cc(Br)c(O)c(Br)c1
Result string: fulfilled

Query string: Reported Emax at or above 50%? Oc1c(I)cc(I)cc1I
Result string: not fulfilled

Query string: Reported Emax at or above 50%? Oc1ccc(C(c2ccc(O)cc2)(C(F)(F)F)C(F)(F)F)cc1
Result string: not fulfilled

Query string: Reported Emax at or above 50%? O=c1c(O)c(-c2ccc(O)c(O)c2)oc2cc(O)cc(O)c12
Result string: not fulfilled

Query string: Reported Emax at or above 50%? Nc1ccn([C@@H]2O[C@H](CO)[C@@H](O)[C@@H]2O)c(=O)n1
Result string: fulfilled

Query string: Reported Emax at or above 50%? CC[C@@]1(O)C(=O)OCc2c1cc1n(c2=O)Cc2cc3c(CN(C)C)c(O)ccc3nc2-1 [Topotecan hydrochloride]
Result string: fulfilled

Query string: Reported Emax at or above 50%? Cc1cc(C2CCCCC2)n(O)c(=O)c1
Result string: not fulfilled

Query string: Reported Emax at or above 50%? CC(=O)O[C@@H]1C(=O)O[C@H]2[C@@H]1OC(=O)[C@@H]2OC(C)=O
Result string: not fulfilled

Query string: Reported Emax at or above 50%? COC1=CC(=O)C[C@@H](C)[C@]12Oc1c(Cl)c(OC)cc(OC)c1C2=O
Result string: not fulfilled

Query string: Reported Emax at or above 50%? Oc1c(Cl)c(Cl)c(Cl)c(Cl)c1Cl
Result string: not fulfilled

----------
Settings: rat
ENDPOINT_LABEL: Depletion after 16 h of incubation with cells (%)
Give just the numeric value; % need not be written.

> print(dat)
                                   molecule  value.reported
1  CCOP(=O)(NC(C)C)Oc1ccc(SC)c(C)c1 (stereo not drawn) [Fenamiphos]           99.41
2  CCOP(=S)(Oc1cnc(C(C)(C)C)nc1)OC(C)C (stereo not drawn) [Tebupirimfos]           94.85
3  CCOP(=S)(OCC)Oc1nc(Cl)n(C(C)C)n1 [Isazofos]           97.88

Query string: Supply measured Depletion after 16 h of incubation with cells of CCSC(=O)N1CCCCCC1 [Molinate] in your reply.
Result string: 97.58

Query string: Supply measured Depletion after 16 h of incubation with cells of CCOP(=S)(OCC)Oc1cnc2ccccc2n1 [Quinalphos] in your reply.
Result string: 96.66

Query string: Supply measured Depletion after 16 h of incubation with cells of CCOP(=S)(OCC)Oc1cc(C)nc(N(CC)CC)n1 [Pirimiphos-ethyl] in your reply.
Result string: 95.16

Each recorded value in this set is attributed to paper PMC9151520.
